# MEASUREMENT_DESCRIPTION: Toxicity liver stage against HepG2, at 10uM
# Type: cell-based
# Parameters: test concentration 10 uM, cell line HepG2-A16-CD81EGFP
# TEST_PARAMETERS: human, HepG2-A16-CD81EGFP cells; read-out: INHIBITION
PARAMETER_MEASURED: cytotoxicity at 10 µM (%)
One number for each entry, in %.

Example entries begin here.
>>> endpoint_value("CN1CC2(CCCN(Cc3nnc(-c4cccc(F)c4)o3)C2)OC1=O (configuration not stated)")
-1.66
>>> endpoint_value("COC(=O)[C@H]1C[C@@H](O)CCN1S(=O)(=O)c1ccc(F)cc1F")
-3.01
>>> endpoint_value("CCN(CCc1ccccc1)Cn1nc(C)c2c(C)onc2c1=O")
-5.18
>>> endpoint_value("O=C(NC1CC1)C1CCN(c2snc3ccccc23)CC1")
-5.43

Provide cytotoxicity at 10 µM for all items below, preserving their order.
1. CCNc1ncc(CN(CCN(C)C)Cc2ccc(C)s2)cn1
2. CCNC(=O)Cc1ccc(NC(=O)NC(CC)CC)cc1
3. CN(C)c1ccc(C(=O)N2CCN(Cc3cscn3)CC2)cn1
4. Cc1nc(CC2CCN(C(=O)C(c3ccccc3C)N(C)C)CC2)no1 (configuration not stated)
5. COCCN1C(=O)[C@]2(CC[C@@H]3CN(S(=O)(=O)CC(C)C)C[C@@H]32)N=C1C
6. CS(=O)(=O)NC1CCN(C(=O)NCc2cc[nH]n2)CC1

stdout:
1: -46.1; 2: -6.93; 3: -4.57; 4: 4.66; 5: -69.3; 6: -6.37

For each of the compounds below, note its cytotoxicity at 10 µM.
1. COc1ncc(CN2CCC3(CCNC(=O)CC3)CC2)cn1
2. CC(C)NS(=O)(=O)c1ccccc1CNCc1cccc(O)c1

stdout:
[-144, -7.19]

* * *

# MEASUREMENT_DESCRIPTION: Toxicity liver stage against HepG2, at 10uM
# Assay type: cell-based
# Parameters: test concentration 10 uM, cell line HepG2-A16-CD81EGFP
# TEST_PARAMETERS: human, HepG2-A16-CD81EGFP cells; read-out: INHIBITION
Task for the reader: assign each of the following compounds its reported cytotoxicity at 10 µM.

Look over these answered cases.
>>> endpoint_value("CN(C)S(=O)(=O)N1CCN(C(=O)OC(C)(C)C)CC12CCCCC2")
"3.36%"
>>> endpoint_value("Cc1cnc(C(=O)N2CCc3ncnc(-c4cnn(C)c4)c3CC2)cn1")
"0.588%"
>>> endpoint_value("COC(=O)N1CCC(NC(=O)c2cc(S(N)(=O)=O)ccc2C)CC1")
"-1.22%"
>>> endpoint_value("Cn1cc(Cl)c(C(=O)N2CCCN(C3Cc4ccccc4C3)CC2)n1")
"-4.86%"
>>> endpoint_value("CC1CCN(CCNC(=O)Nc2ccc(F)cc2Cl)CC1")
"4.68%"

# per-item lookup of cytotoxicity at 10 µM; items listed below
1. Cc1cnn(CC2CN(CC(=O)Nc3cc(C)on3)CCO2)c1 (stereo not drawn)
2. CC(Cc1ccco1)NS(=O)(=O)N1CCCCCC1 (stereo not drawn)
3. COCCn1cnc2ccc(NC(=O)CCCn3cccn3)cc2c1=O
4. CSCCc1c(-c2ccccc2)ncn1CC(C)(C)N1CCCC1
5. Cc1ccc(CN(C(=O)C(C)NC(N)=O)C2CC2)cc1C (stereo not drawn)

stdout:
1. -7.3%
2. 2.29%
3. 6.43%
4. -47.8%
5. 7.47%

List reported cytotoxicity at 10 µM for each of these compounds:
1. Cc1cccc(CNc2n[nH]c(C)n2)c1
2. COCCC1COC2(CCN(C(=O)C3CCCC3)CC2)C1 (stereo not drawn)

stdout:
["-4.09%", "6.13%"]

Dear colleague, could you please provide cytotoxicity at 10 µM for the compounds listed below?
1. COC(=O)[C@@H](NC(=O)c1coc(COc2cccc(F)c2F)n1)C(C)C
2. CCS(=O)(=O)N1CCC(n2nc(-c3cc(C)oc3C)ccc2=O)CC1
3. CN1CCN(c2ccc(NC(=O)c3ccoc3)c(C(F)(F)F)c2)CC1
4. CCN1CC(COC(=O)c2ccc(N(C)C)cc2F)CC1=O (stereo not drawn)

stdout:
1. 1.31%
2. 8.82%
3. -4.1%
4. 2.38%

Each compound below has a recorded value; state its cytotoxicity at 10 µM.
1. CC(C)CN1CC(C(=O)NCCc2ccc(OC(F)F)cc2)CC1=O (stereo not drawn)
2. CCOC(C)c1nc(CN2CCN(CC(F)F)CC2)cs1 (stereo not drawn)

stdout:
1. 5.04%
2. -8.94%

* * *

# MEASUREMENT_DESCRIPTION: Toxicity liver stage against HepG2, at 10uM
# Assay type: cell-based
# Design: test concentration 10 uM, cell line HepG2-A16-CD81EGFP
# TEST_PARAMETERS: human, HepG2-A16-CD81EGFP cells; read-out: INHIBITION
Would you kindly list cytotoxicity at 10 µM for each of these compounds?
Numbers only, in %.

>>> endpoint_value("Cc1c(O)oc(-c2ccc(Br)cc2)nc1=O")
-1.56
>>> endpoint_value("COCCN1CCC2(CC1)CN(C(=O)Cc1cccnc1)CCO2")
-9.43
>>> endpoint_value("c1nc(NCc2cc3n(n2)CCN(C2CCCCC2)C3)c2nc[nH]c2n1")
24.2

For every item in the list below, what is its measured cytotoxicity at 10 µM?
1. CC(C)N1CCC(Cc2cnc(-c3cccc(C(=O)O)c3)cn2)C1 (configuration not stated)
2. CCN1CC(Oc2ccc(Cl)cc2)=NC(SCC(=O)c2ccccc2)=N1
3. O=C(c1cccnc1OCC(F)(F)F)N1CCCn2ncnc21
4. Cc1cccc(CN2CCCC2(C(N)=O)c2cnccn2)n1 (configuration not stated)
5. O=C(c1ccc(S(=O)(=O)NCc2ccon2)cc1)N1CCOCC1
6. O=C([C@H]1CC[C@@H]2[C@@H](CCN2Cc2ccc(F)cc2)O1)N1CCCO1
7. Cc1ccc(C(=O)N(C)Cc2ccc3c(c2)OCCO3)c(=O)[nH]1

stdout:
[-2.27, 0.515, -6.47, -21.9, 3.08, 3.74, -9.24]

Please give cytotoxicity at 10 µM for each item listed below.
1. CCN(C)C(=O)c1ccc(N(C)Cc2cc(-c3ccncc3)no2)nc1
2. Cc1cc(C(=O)NCc2ccco2)nn1C
3. Cc1ccsc1C(=O)N1CC(C(=O)NCC2CC2)C2(CCOCC2)C1 (configuration not stated)
4. CCC(CO)NC(=O)Nc1cc(F)ccc1Br (configuration not stated)
5. CCOCc1cnc2n1CCN(C(=O)Cc1ccco1)C2C (configuration not stated)
6. CCc1nc(CN(C(C)=O)C2CCN(CCc3ccccn3)C2)no1 (configuration not stated)
7. CCNC(=O)CCC(=O)NCC1(O)CCC(C(C)(C)C)CC1 (configuration not stated)

stdout:
1. -2.04
2. -2.8
3. 0.955
4. 11.9
5. 3.53
6. -11.6
7. 5.55

Dear reader, for each entry below, please note its cytotoxicity at 10 µM.
1. CCn1ncc(NC(=O)CCn2ncc3c(Cl)cccc32)c1C
2. CCc1nc(C2CCCN(C(=O)c3cc(C(C)C)[nH]n3)C2)no1 (configuration not stated)
3. Cc1nn(C)cc1C(=O)N1CCCC(c2nccn2CC2CCC2)C1 (configuration not stated)
4. CC1CN(C)CCN1C(=O)NCCCn1ccnc1 (configuration not stated)
5. Cc1cc(-c2cnc(NC3CC3)nc2-c2ccoc2)on1
6. Cc1noc(C)c1CN1C(=O)[C@@H]2CC[C@H]1CN(Cc1ccc(Cl)cc1)C2

stdout:
[7.74, -1.24, 2.52, -45.5, -25.6, 6.22]

* * *

# MEASUREMENT_DESCRIPTION: Toxicity liver stage against HepG2, at 10uM
# Type: cell-based
# Design: test concentration 10 uM, cell line HepG2-A16-CD81EGFP
# TEST_PARAMETERS: human, HepG2-A16-CD81EGFP cells; read-out: INHIBITION
Exercise: for every item that follows, state its recorded cytotoxicity at 10 µM.
Numbers only, in %.

A selection of reference data follows.
>>> endpoint_value("N#CCSCCCN1CCN(C(=O)c2ccc(Cl)cc2)CC1")
-10.3
>>> endpoint_value("O=C(NCCc1nccs1)C(c1ccccc1)n1cnnn1 (centres undefined)")
5.28
>>> endpoint_value("O=C(CNC(=O)c1ccoc1)NC(c1ccc(F)cc1)C(F)(F)F (centres undefined)")
-2.51
>>> endpoint_value("Cc1nc(NC2CCOCC2)cc(C2CCN2S(C)(=O)=O)n1 (centres undefined)")
2.31
>>> endpoint_value("Cc1cc(C(=O)Cn2cnnc2[S+](C)[O-])cc(C)c1F (centres undefined)")
4.31
>>> endpoint_value("CN(C)CCN(Cc1ccccc1)C(=O)CN1CCCNC1=O")
1.42
>>> endpoint_value("Cc1noc(C2CCCN(C(=O)c3cncc(Br)c3)C2)n1 (centres undefined)")
-1.82
>>> endpoint_value("CC(C)Nc1cc(N2CCC(n3cc(C4CC4)nn3)CC2)ncn1")
7.88
>>> endpoint_value("O=C(COc1ccccc1F)NCCC(O)c1ccco1 (centres undefined)")
-4.18
>>> endpoint_value("CN(Cc1cccc(O)c1)CC1CCCN(CCc2ccc(Cl)cc2)C1 (centres undefined)")
6.22

Quick batch: cytotoxicity at 10 µM for everything below.
1. CC(=O)NCCNC(=O)CN1CCN(Cc2nccn2C)C(C)C1 (centres undefined)
2. CN(C)[C@@H]1CCN(C(=O)c2cccc(C#N)c2)[C@H]1Cc1cnn(C)c1
3. CCSc1cc(C(=O)NCCc2nnc(-c3ccco3)[nH]2)ccn1
4. Clc1cccc(CNc2cnn(CCN3CCCCC3)c2)c1
5. Cc1nc(CN2CCCC(CCc3ccc(F)c(F)c3)C2)c[nH]1 (centres undefined)

stdout:
-6.73
-72.6
6.14
0.889
-10.4

Hello, I would appreciate it if you could give cytotoxicity at 10 µM for each entry below.
1. COCC(C)(C#N)NC(=O)c1cn(-c2cccc(Cl)c2F)nn1 (centres undefined)
2. CC(C)N[C@@H]1CO[C@H](CNC(=O)c2cccs2)[C@H]1O
3. O=C(NCc1ccon1)c1c(F)cc(Br)cc1F
4. CC(C)C(=O)NC1CCCN(C(=O)c2ccccc2O)C1 (centres undefined)
5. CCCn1c(C)c(CC(=O)N(C)CCOC)c2c1CC(C)(C)CC2=O
6. Cc1cc(C)nc(N2CCC(Cn3cc(C(N)=O)cn3)CC2)n1
7. COc1ccc(C2CC(=O)NCc3nc4ccccn4c32)cn1 (centres undefined)
8. Cc1cn2nc(N3CCCC3Cn3nc(C)cc3C)sc2n1 (centres undefined)

stdout:
[0.472, -3.65, 12.3, -2.55, -16.6, 3.65, -3.95, -1.32]

stdin: Consider the compound shown here: COCCN(C)C(=O)Nc1ccc(C(=O)NCCC(=O)OC)cc1 What is its recorded cytotoxicity at 10 µM?
stdout: 7.2

Source of measurements: ChEMBL document CHEMBL4513216
